target: PI3Kδ (Homo sapiens (Human)); test: Enzymatic activity of PI3K isoforms, TR-FRET assay (PI3Kδ); conditions: 2× Km ATP, geometric mean if more than one value
pIC50: −log10 of the molar value.
Label scheme for pIC50: lower than 8 is no (0), 8 and above is yes (1).

Query string: Can Cc1ccncc1-n1c([C@H](C)Nc2nc(N)nc(N)c2C#N)nc2ccc(F)c(Cl)c2c1=O (atropisomer, axis not shown) [Compound 42] be said to have pIC50 at or above 8?
Result string: no (0)

----------
Each record here notes measured log10(IC50).
molecular target: PI3Kδ (Homo sapiens (Human), UniProt O00329); assay: Enzymatic activity of PI3K isoforms, TR-FRET assay (PI3Kδ); conditions: 2× Km ATP, geometric mean if more than one value
Sequence (O00329 whole entry, canonical isoform): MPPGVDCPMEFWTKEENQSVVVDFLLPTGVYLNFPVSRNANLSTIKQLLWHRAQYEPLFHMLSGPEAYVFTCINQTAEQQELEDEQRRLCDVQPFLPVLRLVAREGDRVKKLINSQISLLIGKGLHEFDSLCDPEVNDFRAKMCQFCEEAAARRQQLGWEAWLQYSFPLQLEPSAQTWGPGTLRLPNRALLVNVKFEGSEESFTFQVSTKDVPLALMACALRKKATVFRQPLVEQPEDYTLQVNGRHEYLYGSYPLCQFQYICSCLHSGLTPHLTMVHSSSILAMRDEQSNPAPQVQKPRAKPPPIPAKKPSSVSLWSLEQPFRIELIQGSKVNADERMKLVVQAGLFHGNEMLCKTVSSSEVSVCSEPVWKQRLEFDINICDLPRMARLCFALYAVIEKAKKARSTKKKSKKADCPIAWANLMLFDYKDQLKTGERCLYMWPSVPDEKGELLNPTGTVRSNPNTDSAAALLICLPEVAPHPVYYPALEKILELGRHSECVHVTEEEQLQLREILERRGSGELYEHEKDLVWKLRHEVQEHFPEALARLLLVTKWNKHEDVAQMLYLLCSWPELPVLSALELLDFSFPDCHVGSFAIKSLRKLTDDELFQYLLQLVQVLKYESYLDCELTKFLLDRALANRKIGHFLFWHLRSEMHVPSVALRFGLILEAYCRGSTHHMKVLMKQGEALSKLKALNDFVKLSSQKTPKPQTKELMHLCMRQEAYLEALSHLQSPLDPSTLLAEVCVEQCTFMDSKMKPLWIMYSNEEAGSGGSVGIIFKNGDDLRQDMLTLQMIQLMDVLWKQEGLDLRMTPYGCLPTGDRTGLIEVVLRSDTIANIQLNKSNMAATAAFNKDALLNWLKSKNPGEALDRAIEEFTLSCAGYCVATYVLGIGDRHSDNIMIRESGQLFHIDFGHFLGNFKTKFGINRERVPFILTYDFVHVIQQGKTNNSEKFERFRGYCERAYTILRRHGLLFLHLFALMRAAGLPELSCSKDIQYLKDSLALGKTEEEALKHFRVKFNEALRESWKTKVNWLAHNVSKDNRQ
Sequence (P27986 whole entry partner, canonical isoform): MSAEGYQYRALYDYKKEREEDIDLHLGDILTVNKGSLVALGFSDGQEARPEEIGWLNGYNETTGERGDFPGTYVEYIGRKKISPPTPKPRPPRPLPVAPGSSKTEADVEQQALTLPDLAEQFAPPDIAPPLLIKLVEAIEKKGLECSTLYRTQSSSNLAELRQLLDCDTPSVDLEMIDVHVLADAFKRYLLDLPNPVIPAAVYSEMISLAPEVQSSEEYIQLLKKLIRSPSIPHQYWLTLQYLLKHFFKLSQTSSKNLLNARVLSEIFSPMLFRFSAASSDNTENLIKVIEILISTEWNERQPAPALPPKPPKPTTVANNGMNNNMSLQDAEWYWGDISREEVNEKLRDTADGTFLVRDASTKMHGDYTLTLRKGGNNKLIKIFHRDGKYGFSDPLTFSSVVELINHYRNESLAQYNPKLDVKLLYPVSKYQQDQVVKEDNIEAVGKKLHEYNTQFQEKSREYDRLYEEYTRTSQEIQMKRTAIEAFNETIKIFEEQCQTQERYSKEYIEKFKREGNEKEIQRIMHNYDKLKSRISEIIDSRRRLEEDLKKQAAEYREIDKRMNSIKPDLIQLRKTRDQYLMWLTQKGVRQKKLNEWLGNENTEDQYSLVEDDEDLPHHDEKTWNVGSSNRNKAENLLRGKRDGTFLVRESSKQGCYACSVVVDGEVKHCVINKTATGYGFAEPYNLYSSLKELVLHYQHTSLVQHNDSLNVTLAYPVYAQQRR
Please keep in mind that the values are log10 of IC50 expressed in nM.

Record excerpt, results attached:
In [3]: df
Out[3]:
                                   compound                              study_system  experimental_value
0  Cc1c(F)cncc1-n1c([C@H](C)Nc2nc(N)nc(N)c2C#N)nc2c(F)ccc(Cl)c2c1=O (atropisomer, axis not shown) [Compound 73]  PI3Kδ (Homo sapiens (Human), UniProt O00329)                1.77
1  C[C@H](Nc1nc(N)nc(N)c1C#N)c1nc2c(F)ccc(C#N)c2c(=O)n1-c1cccnc1 [Compound 34]  PI3Kδ (Homo sapiens (Human), UniProt O00329)                1.32
2  C[C@H](Nc1nc(N)nc(N)c1Cl)c1nc2c(F)ccc(Cl)c2c(=O)n1-c1ccc(N)nc1 [Compound 88]  PI3Kδ (Homo sapiens (Human), UniProt O00329)                0.78
3  C[C@H](Nc1nc(N)nc(N)c1C#N)c1nc2c(F)ccc(C#N)c2c(=O)n1-c1cncc(F)c1 [Compound 62]  PI3Kδ (Homo sapiens (Human), UniProt O00329)                1.62
4  CC[C@H](Nc1nc(N)nc(N)c1C#N)c1nc2c(F)ccc(C#N)c2c(=O)n1-c1cccnc1 [Compound 35]  PI3Kδ (Homo sapiens (Human), UniProt O00329)                1.54

Per the record, CC[C@@H](Nc1nc(N)nc(N)c1C#N)c1nc2c(F)ccc(Cl)c2c(=O)n1-c1cccnc1 [Compound 111] has log10(IC50) of 0.95

Per the record, N#Cc1c(N)nc(N)nc1N[C@@H](c1nc2c(F)ccc(Cl)c2c(=O)n1-c1cccnc1)C1CC1 [Compound 112] has log10(IC50) of 0.85

Per the record, Cc1c(F)cncc1-n1c([C@@H](C)Nc2nc(N)nc(N)c2C#N)nc2cccc(Cl)c2c1=O (atropisomer, axis not shown) [Compound 114] has log10(IC50) of 2.34

Per the record, Cc1cncc(-n2c([C@H](C)Nc3nc(N)nc(N)c3C#N)nc3cccc(Cl)c3c2=O)c1C (atropisomer, axis not shown) [Compound 78] has log10(IC50) of -0.10

Per the record, C[C@H](Nc1nc(N)nc(N)c1Cl)c1nc2ccc(F)c(Cl)c2c(=O)n1-c1ccc(N)nc1 [Compound 100] has log10(IC50) of 1.68

Per the record, N#Cc1c(N)nc(N)nc1N[C@H](c1nc2c(F)ccc(Cl)c2c(=O)n1-c1cccnc1)C1CC1 [Compound 27] has log10(IC50) of 0.00

----------
molecular target: PI3Kδ (Homo sapiens (Human), UniProt O00329); assay: Enzymatic activity of PI3K isoforms, TR-FRET assay (PI3Kδ); settings: 2× Km ATP, geometric mean if more than one value
Each record here notes measured IC50.
Give the value, in units of nM, as a plain number.

Record excerpt, results attached:
                                   molecule                              study_system  experimental_value
0  C[C@H](Nc1nc(N)nc(N)c1C#N)c1nc2ccc(F)c(Cl)c2c(=O)n1-c1cccnc1  PI3Kδ (Homo sapiens (Human), UniProt O00329)                   4
1  C[C@H](Nc1nc(N)nc(N)c1C#N)c1nc2cccc(Cl)c2c(=O)n1-c1cccnc1  PI3Kδ (Homo sapiens (Human), UniProt O00329)                 0.6
2  Cc1c(F)cncc1-n1c([C@H](C)Nc2nc(N)nc(N)c2C#N)nc2ccc(F)cc2c1=O (atropisomer, axis not shown) [Compound 76]  PI3Kδ (Homo sapiens (Human), UniProt O00329)                  14
3  COc1cncc(-n2c([C@H](C)Nc3nc(N)nc(N)c3C#N)nc3cccc(Cl)c3c2=O)c1  PI3Kδ (Homo sapiens (Human), UniProt O00329)                   4
4  C[C@@H](Nc1nc(N)nc(N)c1C#N)c1nc2c(F)ccc(Cl)c2c(=O)n1-c1cccnc1  PI3Kδ (Homo sapiens (Human), UniProt O00329)                  61
5  Cc1ccncc1-n1c([C@H](C)Nc2nc(N)nc(N)c2C#N)nc2ccc(F)c(Cl)c2c1=O (atropisomer, axis not shown) [Compound 43]  PI3Kδ (Homo sapiens (Human), UniProt O00329)                   4

# ---- query molecule ----
Per the record, C[C@@H](Nc1nc(N)nc(N)c1C#N)c1nc2c(F)ccc(Cl)c2c(=O)n1-c1cncc(F)c1 has IC50 of 620

----------
system: basophils; experiment: Basophil activation in human whole blood (Flow2 CAST kit, CD63 flow cytometry); type: cell-based; conditions: Homo sapiens, human whole blood, basophils activated with anti-FcεRI mAb or fMLP, percent CD63 positive cells, geometric mean
Each record here notes measured pEC50.
Note on pEC50: it is the negative log10 of concentration, concentration in mol/L.

>>> print(df.to_string())
                                   compound  study_system  experimental_value
0  C[C@H](Nc1nc(N)nc(N)c1C#N)c1nc2cccc(Cl)c2c(=O)n1-c1cncc(Cl)c1     basophils                8.40
1  C[C@H](Nc1nc(N)nc(N)c1C#N)c1nc2c(Cl)ccc(Cl)c2c(=O)n1-c1cccnc1     basophils                9.10
2  C[C@H](Nc1nc(N)nc(N)c1C#N)c1nc2c(Cl)cccc2c(=O)n1-c1cccnc1     basophils                8.30
3  Cc1ccncc1-n1c([C@H](C)Nc2nc(N)nc(N)c2C#N)nc2cccc(Cl)c2c1=O (atropisomer, axis not shown)     basophils                8.15
4  C[C@H](Nc1nc(N)nc(N)c1C#N)c1nc2ccc(F)c(Cl)c2c(=O)n1-c1cccnc1     basophils                8.70

So the reported pEC50 for Cc1cncc(-n2c([C@@H](Nc3nc(N)nc(N)c3C#N)C3CC3)nc3cccc(Cl)c3c2=O)c1 , on basophils, turned out to be 8.30

So the reported pEC50 for C[C@H](Nc1nc(N)nc(N)c1C#N)c1nc2cccc(Cl)c2c(=O)n1-c1cncc(C2CC2)c1 , on basophils, turned out to be 8.15

So the reported pEC50 for C[C@H](Nc1nc(N)nc(N)c1C#N)c1nc2cccc(C(F)(F)F)c2c(=O)n1-c1cccnc1 , on basophils, turned out to be 8.52

So the reported pEC50 for N#Cc1c(N)nc(N)nc1N[C@H](c1nc2c(F)ccc(Cl)c2c(=O)n1-c1cccnc1)C1CC1 , on basophils, turned out to be 9.15

So the reported pEC50 for C[C@H](Nc1nc(N)nc(N)c1C#N)c1nc2cccc(S(C)(=O)=O)c2c(=O)n1-c1cccnc1 , on basophils, turned out to be 7.00

So the reported pEC50 for C[C@H](Nc1nc(N)nc(N)c1C#N)c1nc2cccc(Cl)c2c(=O)n1-c1cncc(C(F)F)c1 , on basophils, turned out to be 7.72

So the reported pEC50 for Cc1cccc2nc([C@H](C)Nc3nc(N)nc(N)c3C#N)n(-c3cncc(F)c3)c(=O)c12 , on basophils, turned out to be 9.30

So the reported pEC50 for N#Cc1c(N)nc(N)nc1N[C@H](c1nc2c(Cl)ccc(Cl)c2c(=O)n1-c1cccnc1)C1CC1 , on basophils, turned out to be 8.40

----------
target: UniProtKB O00329; assay: Enzymatic activity of PI3K isoforms, TR-FRET assay (PI3Kδ); format: biochemical; conditions: 2× Km ATP, geometric mean if more than one value
Each record here notes measured IC50.
Give the value, in units of nM, as a plain number.

Record excerpt, results attached:
>>> df
                                   compound  value_units  experimental_value
0  Cc1cc(N)ncc1-n1c([C@H](C)Nc2nc(N)nc(N)c2C#N)nc2c(Cl)ccc(Cl)c2c1=O (atropisomer, axis not shown) [Compound 95]           nM                   4
1  C[C@H](Nc1nc(N)nc(N)c1C#N)c1nc2c(F)ccc(Cl)c2c(=O)n1-c1cncc(F)c1           nM                   1
2  Nc1ccc(-n2c([C@@H](Nc3nc(N)nc(N)c3Cl)C3CC3)nc3cccc(Cl)c3c2=O)cn1           nM                   9
3  Cc1ccncc1-n1c([C@H](C)Nc2nc(N)nc(N)c2C#N)nc2cccc(C(F)(F)F)c2c1=O (atropisomer, axis not shown) [Compound 80]           nM                  27
4  N#Cc1c(N)nc(N)nc1N[C@H](c1nc2c(F)ccc(Cl)c2c(=O)n1-c1ccc(N)nc1)C1CC1           nM                   1

Per the record, Cc1c(F)cncc1-n1c([C@@H](C)Nc2nc(N)nc(N)c2C#N)nc2cccc(Cl)c2c1=O (atropisomer, axis not shown) [Compound 115] has IC50 of 4

Per the record, Cc1ncc(F)cc1-n1c([C@H](C)Nc2nc(N)nc(N)c2C#N)nc2cccc(Cl)c2c1=O (atropisomer, axis not shown) [Compound 45] has IC50 of 6

Per the record, Nc1ccc(-n2c([C@@H](Nc3nc(N)nc(N)c3Cl)C3CC3)nc3c(F)ccc(Cl)c3c2=O)cn1 has IC50 of 31

Per the record, CC(C)C[C@H](Nc1nc(N)nc(N)c1C#N)c1nc2cccc(Cl)c2c(=O)n1-c1cccnc1 has IC50 of 14

Per the record, C[C@H](Nc1nc(N)nc(N)c1C#N)c1nc2cccc(C(F)(F)F)c2c(=O)n1-c1cccnc1 has IC50 of 2

Per the record, CC[C@H](Nc1nc(N)nc(N)c1C#N)c1nc2cccc(Cl)c2c(=O)n1-c1cnc(N)cc1C (atropisomer, axis not shown) [Compound 92] has IC50 of 0.8

Per the record, Cc1cc(N)ncc1-n1c([C@H](C)Nc2nc(N)nc(N)c2C#N)nc2c(Cl)ccc(Cl)c2c1=O (atropisomer, axis not shown) [Compound 96] has IC50 of 1

Per the record, CCC[C@H](Nc1nc(N)nc(N)c1Cl)c1nc2ccc(F)c(Cl)c2c(=O)n1-c1ccc(N)nc1 has IC50 of 94
